- systemTested: soluble guanylate cyclase (sGC) (Homo sapiens (Human), UniProt Q02108+Q02153)
- Sequence (Q02153 whole entry): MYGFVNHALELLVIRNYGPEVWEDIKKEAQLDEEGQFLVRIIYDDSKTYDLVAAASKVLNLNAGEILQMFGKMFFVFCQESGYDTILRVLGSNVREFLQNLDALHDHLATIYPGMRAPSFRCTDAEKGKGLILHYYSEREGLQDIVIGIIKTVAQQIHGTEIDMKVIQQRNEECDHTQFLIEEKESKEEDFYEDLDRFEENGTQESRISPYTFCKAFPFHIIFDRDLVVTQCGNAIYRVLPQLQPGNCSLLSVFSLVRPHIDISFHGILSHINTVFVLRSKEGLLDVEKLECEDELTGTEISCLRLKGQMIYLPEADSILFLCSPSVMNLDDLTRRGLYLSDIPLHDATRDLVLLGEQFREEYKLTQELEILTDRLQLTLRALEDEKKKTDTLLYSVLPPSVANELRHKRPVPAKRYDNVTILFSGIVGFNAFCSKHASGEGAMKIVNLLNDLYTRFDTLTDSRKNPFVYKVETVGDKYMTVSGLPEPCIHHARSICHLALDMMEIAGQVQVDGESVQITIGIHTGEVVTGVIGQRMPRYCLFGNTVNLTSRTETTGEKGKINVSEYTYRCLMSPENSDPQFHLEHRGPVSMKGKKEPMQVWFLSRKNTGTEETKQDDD
- Sequence (Q02108 whole entry): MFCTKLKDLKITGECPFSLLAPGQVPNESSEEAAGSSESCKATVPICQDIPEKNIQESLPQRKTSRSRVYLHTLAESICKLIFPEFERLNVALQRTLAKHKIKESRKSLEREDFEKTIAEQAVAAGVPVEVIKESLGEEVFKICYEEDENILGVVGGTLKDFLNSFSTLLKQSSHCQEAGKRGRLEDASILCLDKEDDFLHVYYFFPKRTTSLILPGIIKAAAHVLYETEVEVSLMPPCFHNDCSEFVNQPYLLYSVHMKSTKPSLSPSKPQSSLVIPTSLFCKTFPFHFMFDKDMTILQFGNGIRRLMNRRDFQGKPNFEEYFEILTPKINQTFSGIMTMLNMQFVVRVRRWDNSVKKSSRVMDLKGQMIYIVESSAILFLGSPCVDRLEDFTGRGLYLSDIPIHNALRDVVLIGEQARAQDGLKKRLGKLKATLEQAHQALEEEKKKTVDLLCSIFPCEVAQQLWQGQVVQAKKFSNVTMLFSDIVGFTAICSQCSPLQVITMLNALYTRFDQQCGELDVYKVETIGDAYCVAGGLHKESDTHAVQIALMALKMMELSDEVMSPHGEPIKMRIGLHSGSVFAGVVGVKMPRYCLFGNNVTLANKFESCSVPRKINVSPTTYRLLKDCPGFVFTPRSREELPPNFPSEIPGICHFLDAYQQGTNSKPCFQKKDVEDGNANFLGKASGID
- measurementDescription: sGC-HEK-cGMP assay, new protocol with DETA-NONOate, LC/MS detection (Example 2C)
- Assay type: cell-based
- conditionDescription: read-out: Absolute EC50 (uM) - binned
Known EC50 of a selection of molecules

Known EC50 results, listed for orientation:
>>> df
                                   molecule      testvalue
0  CC(=O)c1cc(-c2ncc(F)c(NCC(O)(C(F)(F)F)C(F)(F)F)n2)nn1Cc1ccccc1F  0.101 to 1 µM
1  O=C(N1CC(Nc2nc(-c3cc(-c4ccon4)n(Cc4ccccc4F)n3)ncc2F)C1)C1(O)CC1       < 0.1 µM
2   Cc1cc(-c2ncc(F)c(=O)[nH]2)nn1Cc1ccccc1F         > 1 µM
3  O=C(CO)N(CC(F)(F)F)c1nc(-c2cc(-c3ccon3)n(Cc3ccccc3F)n2)ncc1F  0.101 to 1 µM
4  C[C@H]1CCCN(c2nc(-c3cc(-c4ccon4)n(Cc4ccccc4F)n3)ncc2F)[C@@H]1C(=O)NS(=O)(=O)C1CC1       < 0.1 µM
5  NS(=O)(=O)CCCC(=O)Nc1ccnc(-c2cc(-c3ccon3)n(Cc3ccccc3F)n2)n1         > 1 µM

Can you look up EC50 on soluble guanylate cyclase (sGC) (Homo sapiens (Human), UniProt Q02108+Q02153) for O=C(O)c1cccc(CCNc2nc(-c3cc(-c4ccon4)n(Cc4ccccc4F)n3)ncc2F)c1 ?
< 0.1 µM

Consider next the molecule NC(=O)C1(O)CCN(c2nc(-c3cc(-c4ccon4)n(Cc4ccccc4F)n3)ncc2F)CC1 in the same way.
< 0.1 µM
